# Test system: TAOK3
# Assay Conditions: concentration: 1 μM, replicates: in singlicate; n = 1;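 note: KINOMEscan kinase panel screen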
# %Inh annotations
Observation Type: %Inh (%)

INSERT INTO assay_data (molecule, assay_system, unit_abbreviation, value_measured) VALUES
  ('Clc1ccc(-c2nn3ncccc3c2-c2ccnc(Nc3ccc4c(c3)OCCO4)n2)cc1 [GW829116]', 'TAOK3', '%', 0),
  ('O=C(Nc1n[nH]c2cc(-c3ccoc3)ccc12)C1CC1 [SB-738481]', 'TAOK3', '%', 15),
  ('Cc1ccc(C(=O)N2CC[C@@H](O)C2)cc1-n1c(C)cc(OCc2ccc(F)cc2F)c(Br)c1=O', 'TAOK3', '%', 0),
  ('CCS(=O)(=O)c1ccc(OC)c(Nc2nccc(-c3c(-c4cccc(NC(=O)c5c(F)cccc5F)c4)nn4ncccc34)n2)c1 [GSK326180]', 'TAOK3', '%', 0),
  ('Cc1cccc(Nc2nc(N[C@H]3CCNC3)ncc2C(N)=O)c1.Cl [GSK2197149]', 'TAOK3', '%', 5),
  ('COc1cccc(-c2ccc3c(NC(=O)C4CC4)n[nH]c3n2)c1 [SB-710903]', 'TAOK3', '%', 0),
  ('CN1CCN(CCCNc2nccc(-c3c(-c4ccc(F)cc4)nn4cc(C(F)(F)F)ccc34)n2)CC1 [GW621581]', 'TAOK3', '%', 8),
  ('O=C(Nc1cccc(-c2nn3ncccc3c2-c2ccnc(Nc3ccccc3)n2)c1)c1c(F)cccc1F [GSK198271]', 'TAOK3', '%', 97.3),
  ('O=C(Nc1cccc(-c2nn3ccccc3c2-c2ccnc(Nc3cccc(F)c3)n2)c1)c1c(F)ccc(F)c1Cl [GSK357952]', 'TAOK3', '%', 34),
  ('Cn1cc(-c2[nH]c3cc(NC(=O)[C@H](N)C4CCCCC4)cc4c3c2C=NNC4=O)cn1', 'TAOK3', '%', 0),
  ('O=C(NC1CCN(c2ccnc(Nc3ccc(F)cc3)n2)C1)c1cc2ccccc2s1 (stereo not shown) [GSK1379716]', 'TAOK3', '%', 0),
  ('COc1ccc(-c2coc3ccc(-c4nnc(SCc5ccc(OC)c(C(F)(F)F)c5)o4)cc23)cc1', 'TAOK3', '%', 0),
  ('COC(=O)Nc1nc2ccc(Oc3ccc(NC(=O)Nc4cc(C(F)(F)F)ccc4F)cc3)cc2n1C.Cl [GW692089]', 'TAOK3', '%', 0),
  ('NCCCC(NC(=O)c1cc(Br)c(-c2ccnc3[nH]ccc23)s1)c1ccccc1.O=C(O)C(F)(F)F.O=C(O)C(F)(F)F (stereo not shown) [GSK1287544]', 'TAOK3', '%', 0),
  ('O=C(Nc1ccccc1F)NC1CCN(c2ccnc(Nc3ccc(F)cc3)n2)CC1 [GSK1379800]', 'TAOK3', '%', 0),
  ('Cl.c1ccc(-c2ccc3c(Nc4ccc5[nH]ccc5c4)ccnc3c2)nc1 [GW440138]', 'TAOK3', '%', 0);

----------
# %Inh annotations
# Tested on: TYK2(JH2domain-pseudokinase)
# Assay Conditions: concentration: 1 μM, replicates: in singlicate; n = 1
Observation Type: %Inh (%)

INSERT INTO measurements (compound, unit_abbreviation, value_measured) VALUES
  ('COc1cc2c(cc1OCCN1CCNCC1)ncc1c3ccc(C#N)cc3[nH]c21', '%', 15),
  ('Cl.NC(=O)c1cccc(Nc2nccc(Nc3ccc(Oc4c(Cl)cccc4Cl)c(Cl)c3)n2)c1', '%', 0),
  ('COc1cc(Nc2ncc3c(C)nc(-c4cc5ccccc5[nH]4)n3n2)cc(OC)c1OC', '%', 82),
  ('Clc1ccc(-c2nn3ncccc3c2-c2ccnc(Nc3ccc4c(c3)OCCO4)n2)cc1', '%', 0),
  ('c1ccc(Oc2ccc(Nc3ccnc4cc(-c5ccc(CNCCN6CCOCC6)o5)ccc34)cc2)nc1', '%', 13),
  ('Nc1ncc(-c2cccnc2)c2scc(-c3ccc4c(c3)CCN4C(=O)Cc3ccccc3)c12', '%', 0),
  ('NCCCC(NC(=O)c1cc(Br)c(-c2ccnc3[nH]ccc23)s1)c1ccccc1.O=C(O)C(F)(F)F.O=C(O)C(F)(F)F (centres unmarked)', '%', 6),
  ('CCS(=O)(=O)c1ccc(OC)c(Nc2nccc(-c3c(-c4cccc(NC(=O)c5c(F)cccc5F)c4)nn4ncccc34)n2)c1', '%', 26);
